# System: PBMCs from normal and HIV-positive individuals
# Type: cell-based, human
# measurement conditions: 17 HIV+ individuals tested
measured property: number of HIV+ individuals with positive proliferative responses

input sequence | reported
STRTPEDSNSLGT [c-mos peptide, reference compound] | None
SVITQACSKVSFE [Peptide 113] | five
YLRDQQLLGIWG [Peptide 120] | five
CRIKQIINMWQGVGKAMYA [Peptide 122] | seven

Now, please, on to the next sequence.
# sequence FLGFLGAAGSTMGAASLTLTVQARQ [Peptide 121] ; its number of HIV+ individuals with positive proliferative responses = five

* * *

# Test system: anti-peptide antibodies in serum
# Format: binding, human
measured property: number of HIV+ individuals with positive antibody titers (<1:1280)

Please review the following examples before continuing.
input sequence | reported
FLGFLGAAGSTMGAASLTLTVQARQ [Peptide 121] | one
SVITQACSKVSFE [Peptide 113] | one
YLRDQQLLGIWG [Peptide 120] | two
VYYGVPVWKEA [Peptide 104] | three

# sequence CRIKQIINMWQGVGKAMYA [Peptide 122] ; its number of HIV+ individuals with positive antibody titers (<1:1280) = None

Just for reference, patent US7306804B2 is where these values come from.
